Tested on: E. coli NCTC 12923 growth inhibition, 100 uM
METHOD: microbial growth inhibition plus red cell haemolysis – Idler compounds, first plate, PMBN-permeabilized strains, profiling panel (AID 2061108)
TEST CONDITIONS: E. coli NCTC 12923 growth inhibition, 100 µM; stronger effect = higher value
Listed below: inhibition values for each entry.
Give the number; % is assumed, so skip it.

So for O=S(=O)(F)c1ncc(Cl)cc1Br , the logged inhibition turned out to be -27.7

So for Nc1ncc(/C=N/NC(=O)c2ccncc2)cn1 , the logged inhibition turned out to be -0.946

So for O=C(c1ccccc1)c1ccc(NS(=O)(=O)c2cccc(Cl)c2)cc1 , the logged inhibition turned out to be 4.05

So for O=C(Nc1cccc(C(F)(F)F)c1)C(Cl)C(=O)c1ccccc1 (stereo not drawn) , the logged inhibition turned out to be 34.5

So for CC(C)c1cc(Nc2nc(N[C@@H](CO)C3CCCCC3)nc3[nH]ncc23)n[nH]1 , the logged inhibition turned out to be -18.2

So for C=CCSc1nc2c(c(=O)[nH]1)C(c1ccc(N(C)C)cc1)C1=C(CCCC1=O)N2 (stereo not drawn) , the logged inhibition turned out to be -40

So for Nc1ncnc2cc(-c3cccc(S(N)(=O)=O)c3)sc12 , the logged inhibition turned out to be 1.22

So for O=S(=O)(Nc1ccc(Oc2ccccc2)cc1)c1cccc(C(F)(F)F)c1 , the logged inhibition turned out to be -5.41
